Tested on: AB-3167, clinical isolate of Acinetobacter baumannii
Format: cell-based
setup_conditions: AB-3167, clinical isolate of
Bridge positions count the residues as written; N and C are the ends. Square brackets hold non-standard residues; d marks the D form. Peptide text beside a SMILES is read from it. * marks the point of attachment. Isonicotinoyl(2-Ph) = O=C(c1ccnc(-c2ccccc2)c1)*; X33 = N#Cc1ccc(-c2cc(C(=O)*)ccc2Cl)cc1; X25 = O=C(c1ccc(Cl)c(-c2ccccn2)c1)*; X38 = O=S(=O)(c1cccc(-c2ccccc2)c1)*; X15 = O=C(c1cccc(-c2cccc(F)c2)c1)*; X10 = COc1nc(-c2ccccc2)ccc1C(=O)*; X31 = O=C(c1ccnc(-c2ccccc2Cl)c1)*; X5 = O=C(c1ccnc(-c2cccc(F)c2)c1)*; X27 = O=C(c1cncc(-c2ccccc2)c1)*; X8 = O=C(c1cc(-c2ccccc2)ccc1F)*; dDap = NC[C@@H](N)C(=O)O; Dab = NCC[C@H](N)C(=O)O; Dap = NC[C@H](N)C(=O)O

molecule	unit_abbreviation	AB-3167 MIC
CC(C)C[C@@H]1NC(=O)[C@@H](Cc2ccccc2)NC(=O)[C@H](CCN)NC(=O)[C@@H](NC(=O)[C@H](CN)NC(=O)[C@@H](NC(=O)[C@H](CCN)NC(=O)c2cc(-c3ccccc3)ccc2F)[C@@H](C)O)CCNC(=O)[C@H]([C@@H](C)O)NC(=O)[C@H](CCN)NC(=O)[C@H](CCN)NC1=O [Example 34] (X8-[Dab]T[Dap][Dab][Dab][dF]L[Dab][Dab]T; lactam 4-C)	µg/mL	0.25
CC(C)C[C@@H]1NC(=O)[C@@H](Cc2ccccc2)NC(=O)[C@H](CCN)NC(=O)[C@@H](NC(=O)[C@@H](CN)NC(=O)[C@@H](NC(=O)[C@H](CCN)NC(=O)c2ccnc(-c3ccccc3)c2)[C@@H](C)O)CCNC(=O)[C@H]([C@@H](C)O)NC(=O)[C@H](CCN)NC(=O)[C@H](CCN)NC1=O [Example 47] ({Isonicotinoyl(2-Ph)}-[Dab]T[dDap][Dab][Dab][dF]L[Dab][Dab]T; lactam 4-C)	µg/mL	0.5
CC(C)C[C@@H]1NC(=O)[C@@H](Cc2ccccc2)NC(=O)[C@H](CCN)NC(=O)[C@@H](NC(=O)[C@H](CN)NC(=O)[C@@H](NC(=O)[C@H](CCN)NC(=O)c2ccc(Cl)c(-c3ccc(C#N)cc3)c2)[C@@H](C)O)CCNC(=O)[C@H]([C@@H](C)O)NC(=O)[C@H](CCN)NC(=O)[C@H](CCN)NC1=O [Example 39] (X33-[Dab]T[Dap][Dab][Dab][dF]L[Dab][Dab]T; lactam 4-C)	µg/mL	0.5
CC(C)C[C@@H]1NC(=O)[C@@H](Cc2ccccc2)NC(=O)[C@H](CCN)NC(=O)[C@@H](NC(=O)[C@H](CN)NC(=O)[C@@H](NC(=O)[C@H](CCN)NC(=O)c2cncc(-c3ccccc3)c2)[C@@H](C)O)CCNC(=O)[C@H]([C@@H](C)O)NC(=O)[C@H](CCN)NC(=O)[C@H](CCN)NC1=O [Example 30] (X27-[Dab]T[Dap][Dab][Dab][dF]L[Dab][Dab]T; lactam 4-C)	µg/mL	0.25
CC(C)C[C@@H]1NC(=O)[C@@H](Cc2ccccc2)NC(=O)[C@H](CCN)NC(=O)[C@@H](NC(=O)[C@H](CN)NC(=O)[C@@H](NC(=O)[C@H](CCN)NS(=O)(=O)c2cccc(-c3ccccc3)c2)[C@@H](C)O)CCNC(=O)[C@H]([C@@H](C)O)NC(=O)[C@H](CCN)NC(=O)[C@H](CCN)NC1=O [Example 41] (X38-[Dab]T[Dap][Dab][Dab][dF]L[Dab][Dab]T; lactam 4-C)	µg/mL	1
CC(C)C[C@@H]1NC(=O)[C@@H](Cc2ccccc2)NC(=O)[C@H](CCN)NC(=O)[C@@H](NC(=O)[C@H](CN)NC(=O)[C@@H](NC(=O)[C@H](CCN)NC(=O)c2cccc(-c3cccc(F)c3)c2)[C@@H](C)O)CCNC(=O)[C@H]([C@@H](C)O)NC(=O)[C@H](CCN)NC(=O)[C@H](CCN)NC1=O [Example 18] (X15-[Dab]T[Dap][Dab][Dab][dF]L[Dab][Dab]T; lactam 4-C)	µg/mL	0.5
CC(C)C[C@@H]1NC(=O)[C@@H](Cc2ccccc2)NC(=O)[C@H](CCN)NC(=O)[C@@H](NC(=O)[C@H](CN)NC(=O)[C@@H](NC(=O)[C@H](CCN)NC(=O)c2ccnc(-c3ccccc3Cl)c2)[C@@H](C)O)CCNC(=O)[C@H]([C@@H](C)O)NC(=O)[C@H](CCN)NC(=O)[C@H](CCN)NC1=O [Example 4] (X31-[Dab]T[Dap][Dab][Dab][dF]L[Dab][Dab]T; lactam 4-C)	µg/mL	0.25
CC(C)C[C@@H]1NC(=O)[C@@H](Cc2ccccc2)NC(=O)[C@H](CCN)NC(=O)[C@@H](NC(=O)[C@H](CN)NC(=O)[C@@H](NC(=O)[C@H](CCN)NC(=O)c2ccnc(-c3cccc(F)c3)c2)[C@@H](C)O)CCNC(=O)[C@H]([C@@H](C)O)NC(=O)[C@H](CCN)NC(=O)[C@H](CCN)NC1=O [Example 7] (X5-[Dab]T[Dap][Dab][Dab][dF]L[Dab][Dab]T; lactam 4-C)	µg/mL	0.25
COc1nc(-c2ccccc2)ccc1C(=O)N[C@@H](CCN)C(=O)N[C@H](C(=O)N[C@@H](CN)C(=O)N[C@H]1CCNC(=O)[C@H]([C@@H](C)O)NC(=O)[C@H](CCN)NC(=O)[C@H](CCN)NC(=O)[C@H](CC(C)C)NC(=O)[C@@H](Cc2ccccc2)NC(=O)[C@H](CCN)NC1=O)[C@@H](C)O [Example 38] (X10-[Dab]T[Dap][Dab][Dab][dF]L[Dab][Dab]T; lactam 4-C)	µg/mL	0.25
CC(C)C[C@@H]1NC(=O)[C@@H](Cc2ccccc2)NC(=O)[C@H](CCN)NC(=O)[C@@H](NC(=O)[C@H](CN)NC(=O)[C@@H](NC(=O)[C@H](CCN)NC(=O)c2ccc(Cl)c(-c3ccccn3)c2)[C@@H](C)O)CCNC(=O)[C@H]([C@@H](C)O)NC(=O)[C@H](CCN)NC(=O)[C@H](CCN)NC1=O [Example 28] (X25-[Dab]T[Dap][Dab][Dab][dF]L[Dab][Dab]T; lactam 4-C)	µg/mL	0.25

Reference for the values: patent US20120316105A1
